Target: Calmodulin-1 (Homo sapiens) (UniProt P0DP23)
Assay: small molecules binding Ca-loaded calmodulin-1 – biochemical, small-molecule microarray, Cy5-labelled CALM1, plus calcium, artefact control for SMM control-protein annotation, profiling panel (AID 1112);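 further: score merges spot fluorescence with signal to noise from triplicate slides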
Conditions: Cy5-CALM1 binding fluorescence, higher = more signal
Classification field: enter Criterion met for composite z-score values not below -0.2, Criterion not met for values below it.

>  <molecule>
CCOC(=O)[C@@H]1CCCCN1C(=O)C(=O)OC

>  <group>
Criterion not met

$$$$
>  <molecule>
[N-]=[N+]=NCc1ccccc1C[C@@]1(C(N)=O)N=C(c2ccc(OCCCO)cc2)O[C@@H]1c1ccccc1

>  <group>
Criterion met

$$$$
>  <molecule>
COc1ccc([Si](C)(C)[C@@H]2[C@@H](CCO)O[C@]3(C(=O)N(Cc4ccccc4)c4ccc(N5CCOC5=O)cc43)[C@H]2C)cc1

>  <group>
Criterion met

$$$$
>  <molecule>
CCOC(=O)C[C@H]1[C@H](OC(=O)c2ccc(C(=O)c3ccccc3)cc2)[C@@H](NC(=O)CC(C)C)c2cc(OCCCO)ccc2N1C(=O)c1ccccc1

>  <group>
Criterion met

$$$$
>  <molecule>
CCCCC(CC)C(O)C1C=CC2C(=O)N(c3ccccc3)C(=O)C2N1Nc1ccc(C#N)cc1 (stereo unspecified)

>  <group>
Criterion met

$$$$
>  <molecule>
CN(C)c1ccc(C(O)C2C=CC3C(=O)NC(=O)C3N2Nc2ccccn2)cc1 (stereo unspecified)

>  <group>
Criterion not met

$$$$
>  <molecule>
O=C1N(Cc2ccccc2)c2ccccc2C[C@]12N=C(c1ccc(OCCCO)cc1)O[C@@H]2c1ccccc1

>  <group>
Criterion not met

$$$$
>  <molecule>
CCCCNC(=O)c1ccc(C#CC(C)(C)C)c(OC(C)=O)c1

>  <group>
Criterion not met

$$$$
>  <molecule>
NC(=O)NCC#Cc1ccc2c(c1)[C@]1(C(=O)N2)[C@H](C(=O)N2CCN(c3ncccn3)CC2)[C@H]2C(=O)O[C@H](c3ccccc3)[C@H](c3ccccc3)N2[C@@H]1c1ccc(O)cc1

>  <group>
Criterion met

$$$$
>  <molecule>
COc1ccc(C(=O)Nc2ccc(CN3C(=O)[C@]4(O[C@H](CC(=O)N5Cc6ccccc6C[C@H]5CO)[C@@H]([Si](C)(C)c5ccc(OC)cc5)[C@@H]4C)c4ccccc43)cc2)cc1

>  <group>
Criterion not met

$$$$
>  <molecule>
C=CC[C@@]1(C(=O)NCCCOC)N=C(c2ccc(OCCCO)cc2)O[C@@H]1c1ccccc1

>  <group>
Criterion met

$$$$
>  <molecule>
CCCCCCCCCC(O)C1C=CC2C(=O)N(c3ccccc3)C(=O)C2N1Nc1cc(OC)c(OC)c(OC)c1 (stereo unspecified)

>  <group>
Criterion met

$$$$
>  <molecule>
CCCC1(C(=O)OC)C=C2C(=C(C)C(=O)C2C)CN1 (stereo unspecified)

>  <group>
Criterion met

$$$$
>  <molecule>
O=C1C2C=CC(C(O)C3CC=CCC3)N(Nc3ccccc3)C2C(=O)N1c1ccccc1 (stereo unspecified)

>  <group>
Criterion met

$$$$
>  <molecule>
C=CCC(OC(C)=O)[C@@H]1[C@@H](N(Cc2cccc3ccccc23)C(=O)Cc2ccc(OC)cc2)c2cc(OCCCO)ccc2N1C(=O)c1ccc(-c2ccccc2)cc1 (stereo partly specified)

>  <group>
Criterion met

$$$$
>  <molecule>
COc1cccc(C)c1NC(=O)O[C@H]1[C@H](OC(=O)Nc2ccccc2-c2ccccc2)[C@H](OC(=O)Nc2ccccc2-c2ccccc2)[C@@H](OC)O[C@@H]1CO

>  <group>
Criterion met

$$$$
>  <molecule>
C=C(/C(=C/C[C@H](OC(C)=O)c1ccc(CO)o1)c1cnc2ccccc2c1)C(C)C

>  <group>
Criterion not met

$$$$
>  <molecule>
COCCOC(=O)N1C(=O)[C@@]2(c3cc(C#CCNC(N)=O)ccc31)[C@H](C(N)=O)[C@H]1C(=O)O[C@H](c3ccccc3)[C@H](c3ccccc3)N1[C@@H]2c1ccccc1OCCO

>  <group>
Criterion not met

$$$$
>  <molecule>
Cc1ccc(S[C@]2(C(=O)NCC(F)(F)F)CC(=O)N(Cc3cc(C(F)(F)F)cc(C(F)(F)F)c3)[C@@H]2c2ccc(CO)cc2I)cc1

>  <group>
Criterion met

$$$$
>  <molecule>
O=C(NCCN1CCOCC1)[C@@H]1c2ccccc2C(=O)N(C2Cc3ccccc3C2)[C@H]1c1ccc(CO)cc1

>  <group>
Criterion not met

$$$$
>  <molecule>
CCCC[C@@H](O)C1=C(COC)C[C@H]2C(=O)N(C)C(=O)[C@H]2[C@H]1CO

>  <group>
Criterion not met

$$$$
>  <molecule>
C=CCN1C(=O)[C@]2(CCC(=O)OC(C)(C)C)N=C(c3ccc(OCCCO)cc3)O[C@@H]2c2ccccc21

>  <group>
Criterion met

$$$$
>  <molecule>
CCOC(=O)C=Cc1cccc(C)c1O

>  <group>
Criterion not met

$$$$
>  <molecule>
CCOC(=O)C[C@H]1[C@H](OC(=O)c2cc3ccccc3oc2=O)[C@@H](NC(=O)c2ccc3ccccc3n2)c2cc(OCCCO)ccc2N1C(=O)Cc1ccc(OC)cc1

>  <group>
Criterion not met

$$$$
>  <molecule>
CCOC(=O)C1=C[C@@H](C(C)C)N(S(=O)(=O)c2ccc(C)cc2)[C@H]1c1ccc(C(F)(F)F)cc1

>  <group>
Criterion met

$$$$
>  <molecule>
COc1cc2c(cc1O)C=[N+](Cc1sc3ccccc3c1Cl)CC2

>  <group>
Criterion met

$$$$
>  <molecule>
CCCC=C(CCC)[C@@H](NC(=O)c1cccs1)c1ccc(C(=O)OC)cc1

>  <group>
Criterion not met

$$$$
>  <molecule>
CC1=C2[C@@H](CCc3ccccc3)OB(O)C[C@@H]2[C@@H]2C(=O)N(Cc3ccccc3)C(=O)[C@@H]2C1

>  <group>
Criterion not met

$$$$
>  <molecule>
COCCCNC(=O)[C@@H]1c2ccccc2C(=O)N(C(C)C)[C@H]1c1ccc(CO)cc1

>  <group>
Criterion met

$$$$
>  <molecule>
CC(C)C(CO)N1C(=O)[C@@H]2C3C(=O)OCCC/C=C\[C@H]3OC23C=CCN(Cn2nnc4ccccc42)C(=O)[C@@H]13 (stereo partly specified)

>  <group>
Criterion met

$$$$
>  <molecule>
CC(C)NC(=O)[C@@]1(c2ccc([N+](=O)[O-])cc2)CC(=O)N(C2CCCCC2)[C@@H]1c1ccc(CO)cc1

>  <group>
Criterion met

$$$$

Hey, just so you know, these numbers are from PubChem BioAssay.
